# ASSAY TARGET: Glycine receptor subunit alpha-1 (Homo sapiens)
# METHOD: Potentiation of human GlyR-alpha1 expressed in Xenopus laevis oocytes assessed as induction of glycine-activated currents at 1 uM after 1 to 4 days by two-electrode voltage clamp assay relative to control
# Format: cell-based
READOUT KIND: Activity (%)
Respond with the bare value in %.

{"COMPOUND": "O=c1[nH]c2ccccc2n1C1CCN(CCCC(c2ccc(F)cc2)c2ccc(F)cc2)CC1 [PIMOZIDE]", "ASSAY TARGET": "Glycine receptor subunit alpha-1 (Homo sapiens)", "Activity [%]": 219}
{"COMPOUND": "CNC(=O)c1cc(Oc2ccc(NC(=O)Nc3ccc(Cl)c(C(F)(F)F)c3)c(F)c2)ccn1", "ASSAY TARGET": "Glycine receptor subunit alpha-1 (Homo sapiens)", "Activity [%]": 116}
{"COMPOUND": "OC(c1cc(C(F)(F)F)nc2c(C(F)(F)F)cccc12)C1CCCCN1 (configuration not stated)", "ASSAY TARGET": "Glycine receptor subunit alpha-1 (Homo sapiens)", "Activity [%]": 126}
{"COMPOUND": "COc1ccc(-c2ccc3cc(C(=O)O)ccc3c2)cc1C12CC3CC(CC(C3)C1)C2", "ASSAY TARGET": "Glycine receptor subunit alpha-1 (Homo sapiens)", "Activity [%]": 172}
{"COMPOUND": "CCCc1nc2c(C)cc(-c3nc4ccccc4n3C)cc2n1Cc1ccc(-c2ccccc2C(=O)O)cc1", "ASSAY TARGET": "Glycine receptor subunit alpha-1 (Homo sapiens)", "Activity [%]": 120}
{"COMPOUND": "C[C@@H](NCCCc1cccc(C(F)(F)F)c1)c1cccc2ccccc12", "ASSAY TARGET": "Glycine receptor subunit alpha-1 (Homo sapiens)", "Activity [%]": 182}

Ask | Jot down Activity (Glycine receptor subunit alpha-1 (Homo sapiens)) of `CCCCCc1cc(O)c2c(c1)OC(C)(C)[C@@H]1CCC(C)=C[C@@H]21` .
Reply | 162

Ask | Please indicate recorded Activity of `C=C1CC[C@H](O)C/C1=C/C=C1\CCC[C@]2(C)[C@@H]([C@H](C)CCCC(C)C)CC[C@@H]12` measured with Glycine receptor subunit alpha-1 (Homo sapiens).
Reply | 216

Ask | Tell me its Activity on Glycine receptor subunit alpha-1 (Homo sapiens): `COc1cc(OC)c(NC(=O)Nc2cc(C)on2)cc1Cl`
Reply | 102

Ask | Send back Glycine receptor subunit alpha-1 (Homo sapiens) Activity of `Cc1nc2n(c(=O)c1CCN1CCC(c3noc4cc(F)ccc34)CC1)CCCC2` only.
Reply | 180

Ask | Return reported Activity for target or system Glycine receptor subunit alpha-1 (Homo sapiens), item `COc1ccc(CCN2CCC(Nc3nc4ccccc4n3Cc3ccc(F)cc3)CC2)cc1` .
Reply | 122

Ask | Param request: Activity | system Glycine receptor subunit alpha-1 (Homo sapiens) | item `Cc1nc2c([nH]1)-c1ccccc1N(C(=O)c1ccc(NC(=O)c3ccccc3-c3ccccc3)cc1)CC2`
Reply | 106

###

# ASSAY TARGET: Glycine receptor subunit alpha-1 (Homo sapiens)
# METHOD: Potentiation of human GlyR-alpha1 expressed in Xenopus laevis oocytes assessed as induction of glycine-activated currents at 10 uM after 1 to 4 days by two-electrode voltage clamp assay relative to control
# Format: cell-based
Items are presented alongside their recorded %max.
Enter your answer as a number in %; do not include the unit.

Field: example entries. Status: answers known.
{"COMPOUND": "COc1ccc(-c2ccc3cc(C(=O)O)ccc3c2)cc1C12CC3CC(CC(C3)C1)C2", "%max (%)": 260}
{"COMPOUND": "CCCCCc1cc(O)c2c(c1)OC(C)(C)[C@@H]1CCC(C)=C[C@@H]21 [DRONABINOL]", "%max (%)": 260}
{"COMPOUND": "C=C1CC[C@H](O)C/C1=C/C=C1\\CCC[C@]2(C)[C@@H]([C@H](C)CCCC(C)C)CC[C@@H]12 [CHOLECALCIFEROL]", "%max (%)": 220}

Now consider the entry below.
Ask | Quickly give me recorded %max for CNC(=O)c1cc(Oc2ccc(NC(=O)Nc3ccc(Cl)c(C(F)(F)F)c3)c(F)c2)ccn1 [REGORAFENIB]
Reply | 200
